# Target of assay: UniProt:Q9H244
# Procedure text: Binding affinity at human recombinant P2Y12 receptor expressed in CHO cells by radioligand binding assay
pKi: −log10 of the molar value.
Class 1: pKi at least 9. Class 0: pKi below 9.

For this compound, is measured pKi 9 or higher? CCCCCOC(=O)N1CCN(C(=O)[C@H](CCC(=O)O)NC(=O)c2nc(-c3ccccc3)cc(N3CCC(OCCO)CC3)n2)CC1
0

Quick one: CCCCCOC(=O)N1CCN(C(=O)[C@H](CCC(=O)O)NC(=O)c2cc(SC3CCCCC3)nc(-c3ccccc3)n2)CC1
0

Quick one: CCCCCOC(=O)N1CCN(C(=O)[C@H](CCC(=O)O)NC(=O)c2cc(N3CCC(OCCOC)CC3)nc(-c3ccccc3)n2)CC1
0

What do you have for CCCCCOC(=O)N1CCN(C(=O)[C@H](CCC(=O)O)NC(=O)c2cc(N3CC(O)C3)nc(-c3ccccc3)n2)CC1 ?
0

Next up: CCCCCOC(=O)N1CCN(C(=O)[C@H](CCC(=O)O)NC(=O)c2nc(-c3ccccc3)cc(N3CCC(C(=O)N(CC)CC)CC3)n2)CC1
0

Another compound to check: CCCCCOC(=O)N1CCN(C(=O)[C@H](CCC(=O)O)NC(=O)c2cc(N3CCC(CN4CCCC4)CC3)nc(-c3ccccc3)n2)CC1
1

---

# Target of assay: P2Y purinoceptor 12 (Homo sapiens)
# Procedure text: Ratio of compound IC50 to thienopyrimidine IC50 for P2Y12 receptor in human platelet rich plasma assessed as inhibition of ADP-induced platelet aggregation by light transmission aggregometry
Result type: Ratio IC50

Which Ratio IC50 value belongs to CCCCCOC(=O)N1CCN(C(=O)[C@H](CCC(=O)O)NC(=O)c2cc(N3CCC(C(=O)N4CCC4)CC3)nc(-c3ccccc3)n2)CC1 ?
0.04

Also need CCCCCOC(=O)N1CCN(C(=O)[C@H](CCC(=O)O)NC(=O)c2cc(N3CC(OCC)C3)nc(-c3ccccc3)n2)CC1 , thanks.
1

Entry to check: CCCCCOC(=O)N1CCN(C(=O)[C@H](CCC(=O)O)NC(=O)c2cc(OCCCN3CCOCC3)nc(-c3ccccc3)n2)CC1
1.4

Note, next up: CCCCOC(=O)N1CCN(C(=O)[C@H](CCC(=O)O)NC(=O)c2cc(N3CCC(C(=O)N(C)C)CC3)nc(-c3ccccc3)n2)CC1
0.2

Moving on to the next molecule: CCCCOC(=O)N1CCN(C(=O)[C@H](CCC(=O)O)NC(=O)c2cc(OCC3CCCO3)nc(-c3ccccc3)n2)CC1 (some centres not stated)
1.4

What about CCCCCOC(=O)N1CCN(C(=O)[C@H](CCC(=O)O)NC(=O)c2nc(-c3ccccc3)cc(N3CCC(N)CC3)n2)CC1 ?
0.6

And CCCCOC(=O)N1CCN(C(=O)[C@H](CCC(=O)O)NC(=O)c2cc(N3CCC(C(=O)NCC)CC3)nc(-c3ccccc3)n2)CC1 ?
0.1

---

# Target of assay: P2Y purinoceptor 12 (Homo sapiens, UniProt Q9H244)
# Sequence (Q9H244 whole entry): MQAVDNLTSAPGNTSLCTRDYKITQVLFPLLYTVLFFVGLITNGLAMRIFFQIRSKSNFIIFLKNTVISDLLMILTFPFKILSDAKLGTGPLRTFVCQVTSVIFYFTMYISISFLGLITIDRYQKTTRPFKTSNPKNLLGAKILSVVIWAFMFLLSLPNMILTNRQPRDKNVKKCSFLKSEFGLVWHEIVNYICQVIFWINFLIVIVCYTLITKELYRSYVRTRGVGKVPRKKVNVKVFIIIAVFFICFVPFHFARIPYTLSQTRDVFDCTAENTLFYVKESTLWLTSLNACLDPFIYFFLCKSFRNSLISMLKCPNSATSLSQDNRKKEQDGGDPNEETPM
# Procedure text: Ratio of compound IC50 to thienopyrimidine IC50 for P2Y12 receptor in human platelet rich plasma assessed as inhibition of ADP-induced platelet aggregation by light transmission aggregometry
For each record, write down the corresponding Ratio IC50.
API note: the answer field is a bare number with no unit suffix.

Which measured Ratio IC50 belongs to CCCCCOC(=O)N1CCN(C(=O)[C@H](CCC(=O)O)NC(=O)c2cc(N3CCC(CCN4CCCC4)CC3)nc(-c3ccccc3)n2)CC1 , tested on P2Y purinoceptor 12 (Homo sapiens, UniProt Q9H244)?
0.1

Field entry: CCCCOC(=O)N1CCN(C(=O)[C@H](CCC(=O)O)NC(=O)c2cc(OC3CCNCC3)nc(-c3ccccc3)n2)CC1
0.3

Follow-up item: CCCCCOC(=O)N1CCN(C(=O)[C@H](CCC(=O)O)NC(=O)c2nc(OCC3CCN(C)CC3)cc(-c3ccccc3)n2)CC1
0.8

Same again, this time with CCCCCOC(=O)N1CCN(C(=O)[C@H](CCC(=O)O)NC(=O)c2cc(N3CCC(OCCOC)CC3)nc(-c3ccccc3)n2)CC1
0.2

---

# Procedure text: Selectivity for human P2Y12 receptor over P2Y1
Result type: fold change (FC)

Give its fold change (FC) value. Item: CCCCCOC(=O)N1CCN(C(=O)[C@H](CCC(=O)O)NC(=O)c2nc(-c3ccccc3)cc(N3CCN(C(N)=O)CC3)n2)CC1
> 340

Also need CCCCCOC(=O)N1CCN(C(=O)[C@H](CCC(=O)O)NC(=O)c2cc(N3CCC(CCN(C)C)CC3)nc(-c3ccccc3)n2)CC1 , thanks.
> 340

Again, but for CCCCCOC(=O)N1CCN(C(=O)[C@H](CCC(=O)O)NC(=O)c2cc(N3CCC(CC(=O)NCC)CC3)nc(-c3ccccc3)n2)CC1
> 340

---

# Target of assay: P2Y purinoceptor 12 (Homo sapiens)
# Procedure text: Binding affinity at human recombinant P2Y12 receptor expressed in CHO cells by radioligand binding assay
// assign met if Ki falls strictly below 6 nM, else not met (ties count as not met)

Is Ki strictly under 6 nM for the entry CCCCOC(=O)N1CCN(C(=O)[C@H](CCC(=O)O)NC(=O)c2cc(OCC3CCNCC3)nc(-c3ccccc3)n2)CC1 ?
not met

Note, next up: CCCCCOC(=O)N1CCN(C(=O)[C@H](CCC(=O)O)NC(=O)c2nc(-c3ccccc3)cc(N3CCN(CCOC)CC3)n2)CC1
not met

What about this compound? CCCCOC(=O)N1CCN(C(=O)[C@H](CCC(=O)O)NC(=O)c2cc(OCC3CCN(C)CC3)nc(-c3ccccc3)n2)CC1
not met

What do you have for CCCCCOC(=O)N1CCN(C(=O)[C@H](CCC(=O)O)NC(=O)c2cc(SCCO)nc(-c3ccccc3)n2)CC1 ?
met

What do you have for CCCCCOC(=O)N1CCN(C(=O)[C@H](CCC(=O)O)NC(=O)c2nc(-c3ccccc3)cc(N3CCN(C(=O)N(C)C)CC3)n2)CC1 ?
not met

Follow-up item: CCCCCOC(=O)N1CCN(C(=O)[C@H](CCC(=O)O)NC(=O)c2cc(OCC3CCN(C)CC3)nc(-c3ccccc3)n2)CC1
met

Next: CCCCCOC(=O)N1CCN(C(=O)[C@H](CCC(=O)O)NC(=O)c2cc(N3CCC(CN4CCCC4=O)CC3)nc(-c3ccccc3)n2)CC1
met

---

Give measured Ki for each item. Keep answers brief.
# Target of assay: P2Y purinoceptor 12 (Homo sapiens)
# Procedure text: Binding affinity at human recombinant P2Y12 receptor expressed in CHO cells by radioligand binding assay
Numeric answer only, unit nM assumed.

I have this molecule here, CCCCOC(=O)N1CCN(C(=O)[C@H](CCC(=O)O)NC(=O)c2cc(OC3CCNCC3)nc(-c3ccccc3)n2)CC1 , and I need its recorded Ki.
11

# repeat for CCCCCOC(=O)N1CCN(C(=O)[C@H](CCC(=O)O)NC(=O)c2cc(NCCOC)nc(-c3ccccc3)n2)CC1
1.2

And what about the molecule CCCCOC(=O)N1CCN(C(=O)[C@H](CCC(=O)O)NC(=O)c2cc(OCC3CCCO3)nc(-c3ccccc3)n2)CC1 (some centres undefined) ?
55

Here is the next molecule: CCCCCOC(=O)N1CCN(C(=O)[C@H](CCC(=O)O)NC(=O)c2cc(N3CCC(CC(=O)N(CC)CC)CC3)nc(-c3ccccc3)n2)CC1
3.1

---

# Target of assay: P2Y purinoceptor 12 (Homo sapiens)
# Procedure text: Ratio of compound IC50 to AZD-6140 IC50 for P2Y12 receptor in human platelet rich plasma assessed as inhibition of ADP-induced platelet aggregation by light transmission aggregometry
Would you mind telling me the reported Ratio IC50 of each entry?
Reply briefly: the number, and no unit.

Would you kindly share the measured Ratio IC50 for CCCCCOC(=O)N1CCN(C(=O)[C@H](CCC(=O)O)NC(=O)c2cc(N3CCNCC3)nc(-c3ccccc3)n2)CC1 ?
1.4

Cool, now CCCCCOC(=O)N1CCN(C(=O)[C@H](CCC(=O)O)NC(=O)c2nc(-c3ccccc3)cc(N3CCN(CCOC)CC3)n2)CC1
8.3

Can you check CCCCCOC(=O)N1CCN(C(=O)[C@H](CCC(=O)O)NC(=O)c2cc(N3CCC(CN(CC)CC)CC3)nc(-c3ccccc3)n2)CC1 next?
0.8

And the next one, CCCCCOC(=O)N1CCN(C(=O)[C@H](CCC(=O)O)NC(=O)c2cc(N3CCC(COC)CC3)nc(-c3ccccc3)n2)CC1 ?
2.8

How about this compound: CCCCCOC(=O)N1CCN(C(=O)[C@H](CCC(=O)O)NC(=O)c2nc(-c3ccccc3)cc(N3CCC(C(=O)N4CCCC4)CC3)n2)CC1
1.8

What about CCCCCOC(=O)N1CCN(C(=O)[C@H](CCC(=O)O)NC(=O)c2cc(N3CCC(OCCO)CC3)nc(-c3ccccc3)n2)CC1 ?
0.9

Further, for CCCCCOC(=O)N1CCN(C(=O)[C@H](CCC(=O)O)NC(=O)c2cc(NCCCN(C)C)nc(-c3ccccc3)n2)CC1 ?
1.7

Similarly, CCCCCOC(=O)N1CCN(C(=O)[C@H](CCC(=O)O)NC(=O)c2cc(N3CCC(C(=O)N(C)C)CC3)nc(-c3ccccc3)n2)CC1 ?
0.3

Would you kindly repeat that for CCCCCOC(=O)N1CCN(C(=O)[C@H](CCC(=O)O)NC(=O)c2nc(-c3ccccc3)cc(N3CCC(COC)CC3)n2)CC1 ?
9.5

Follow-up item: CCCCOC(=O)N1CCN(C(=O)[C@H](CCC(=O)O)NC(=O)c2cc(OCCN(CC)CC)nc(-c3ccccc3)n2)CC1
4.3

Same lookup for CCCCCOC(=O)N1CCN(C(=O)[C@H](CCC(=O)O)NC(=O)c2cc(N3CCC(CC(=O)NCC)CC3)nc(-c3ccccc3)n2)CC1 , please.
1.6
